Hello, the source for this data is PubChem BioAssay (NCI), in case you need it.

# System: KM12 colon
# Protocol: NCI tumour cell line growth inhibition, 48 h
Measurement label: GI50

COc1cc2cc(Oc3ccc(NC(=O)c4cc(C(F)(F)F)cc(C(F)(F)F)c4)cc3)c(C)nc2cc1OC :: 2.79 µM
NNCCc1ccc(NC(=O)CCCc2ccc(C(=O)Nc3ccccc3N)cc2)cc1 :: 29.1 µM

Let us move to another entry and its GI50.
*Q* What value of GI50 has been recorded for this entry: O=C(Nc1cc(Cl)ccc1O)c1ccc(Nc2ccnc(C(F)(F)F)c2)cc1
*A* 3.19 µM

###

# Test system: NCI-H460 lung
# Protocol: NCI tumour cell line growth inhibition, 48 h
Measurement label: TGI

CCCCNC(=S)N/N=C/c1cccc(C)n1 :: > 100 µM
CCN1c2ccccc2-c2c3c1cc(C)cc3c1ccccc1[n+]2CC :: 2.73 µM
CC(=O)Oc1cc(C(F)(F)F)ccc1C(=O)OC1(C)OC(=O)c2ccc(C(F)(F)F)cc2O1 (centres undefined) :: > 100 µM
COc1ccc(-c2nc(-c3cc(OC)cc(OC)c3)[nH]c2-c2ccc(OC)cc2)cc1 :: > 100 µM
NCCNCC1CCNCC1 :: > 100 µM
O=C(O)c1cc(-c2ccc3c(O)c(O)ccc3c2)ccc1O :: > 7.5 µM
Oc1[nH]c2ccc(Br)cc2c1N=NC(=S)Nc1ccc(F)cc1 :: 15.3 µM
NC(=O)C(=O)CC(=O)c1ccccc1NC1=CC(=O)C(=O)c2ccccc21 :: > 100 µM
COc1c(O)c2c3c(c(C)cc(O)c3c1O)C(=O)C(O)(C(C)(C)C(C)=O)C2=O (centres undefined) :: > 100 µM
COC(=O)/C([Se]c1c(C)cc(C)cc1C)=C(/[Se]c1c(C)cc(C)cc1C)C(=O)OC :: > 100 µM

*Q* What value of TGI has been recorded for this entry: Nc1ccc(-c2nc3ccccc3s2)cc1C(F)(F)F
*A* 28.5 µM

*Q* What value of TGI has been recorded for this entry: CCCCCCCCCCNC(=O)CI
*A* 9.66 µM

*Q* What value of TGI has been recorded for this entry: C=CC(=O)N1CN(C(=O)C=C)CN(C(=O)C=C)C1
*A* 50.4 µM

*Q* What value of TGI has been recorded for this entry: C=CCNC(=S)N=Nc1c(O)[nH]c2ccc([N+](=O)[O-])cc12
*A* > 100 µM

###

# Test system: OVCAR-3 ovarian
# Protocol: NCI tumour cell line growth inhibition, 48 h
Measurement label: TGI (µM)
Write the number in µM without appending the unit.

CO[C@H]1Nc2c(ccc(C)c2O)C(=O)N2C=C(/C=C/C(N)=O)C[C@@H]12 :: 0.192
CCNC(=O)/C(=C/c1ccc(OC)cc1)c1cc(OC)c(OC)c(OC)c1 :: 15

Let us move to another entry and its TGI.
*Q* What value of TGI has been recorded for this entry: CC1(C)CN=C(NN=C(/C=C/c2ccc(C(F)(F)F)cc2)/C=C/c2ccc(C(F)(F)F)cc2)NC1
*A* 3.05

###

# Test system: MOLT-4 leukemia
# Protocol: NCI tumour cell line growth inhibition, 48 h
List of TGI values.

Use the examples below as a reference point.
CCOC(CNCCC(=O)OC)OCC :: > 10 µM
CSc1c(C#N)c(N)n(-c2ccc(C)cc2)c(=O)c1C#N :: > 100 µM
CCCCn1cnc2c(c(CC#N)nn2-c2ccccc2)c1=N :: > 100 µM
COC(=O)C(=O)C(C(C)=O)C(=O)NCc1ccc(OC)c(OC)c1 (stereo not given) :: > 100 µM

Let us move to another entry and its TGI.
*Q* What value of TGI has been recorded for this entry: C#CCOc1cccc(Nc2ncnc3c(NC(=O)C=C)cccc23)c1
*A* > 100 µM

###

# Tested on: HT29 colon
# Protocol: NCI tumour cell line growth inhibition, 48 h; in the data active = GI50 below about 0.43 µM; inactive = the rest
Response enum: 1 (yes) (active), 0 (no) (inactive)

Below, 4 compounds whose answers are already recorded.
Cc1cn(-c2cc(C(=O)Nc3cccc(-n4ccc5c(NC(=O)c6ccccc6)nccc54)c3)cc(C(F)(F)F)c2)cn1 :: 1 (yes)
COC(=O)c1cc2c(o1)-c1nccc3c1c(nc1ccccc13)C2=O :: 0 (no)
O=C(c1ccco1)c1c(C(F)(F)F)n([O-])c2ccc(C(F)(F)F)cc2[n+]1=O :: 1 (yes)
COc1ccc(-c2cnnn2-c2nonc2-n2cccc2)cc1 :: 1 (yes)

*Q* Identify the outcome logged in this assay for the compound shown: COc1cccc(/C=N/[N-]C(=O)c2ccncc2)c1[O-].COc1cccc(/C=N/[N-]C(=O)c2ccncc2)c1[O-].[O]=[U](=[O])([OH2+])[OH2+]
*A* 0 (no)

*Q* Identify the outcome logged in this assay for the compound shown: CCCCCCCCCCNC(=O)CI
*A* 0 (no)

*Q* Identify the outcome logged in this assay for the compound shown: N=C(N)c1ccc(-c2ccc(-c3cccs3)s2)cc1
*A* 0 (no)

*Q* Identify the outcome logged in this assay for the compound shown: Nc1cc2c(cc1Br)[nH]c(=O)c1ccccc12
*A* 0 (no)

*Q* Identify the outcome logged in this assay for the compound shown: C=CC(=O)N1CN(C(=O)C=C)CN(C(=O)C=C)C1
*A* 0 (no)

###

# System: CCRF-CEM leukemia
# Protocol: NCI tumour cell line growth inhibition, 48 h
Measurement label: TGI

CC(C(=O)N1C(=O)N(C(=O)C(C)C(O)c2ccccc2)C2CCCCC21)C(O)c1ccccc1 (stereo not drawn) :: > 100 µM
Cc1ccc(C)c(N2C/C(=N\NC(=O)CC#N)C(c3nc4ccccc4s3)C(=O)C2=O)c1 (stereo not drawn) :: > 100 µM

Let us move to another entry and its TGI.
*Q* Lab note: need TGI for Nc1nc(-c2ccc(Cl)c([N+](=O)[O-])c2)cs1 on CCRF-CEM leukemia, anyone have it?
*A* > 100 µM

###

# Test system: OVCAR-8 ovarian
# Protocol: NCI tumour cell line growth inhibition, 48 h
Measurement label: GI50

Use the examples below as a reference point.
CCCC/C(=C\C1=C(C)C(=O)C(OC)=C(OC)C1=O)C(=O)O :: > 100 µM
CC1(C)CN=C(NN=C(/C=C/c2ccc(C(F)(F)F)cc2)/C=C/c2ccc(C(F)(F)F)cc2)NC1 :: 1.67 µM

Let us move to another entry and its GI50.
*Q* What value of GI50 has been recorded for this entry: COc1cc2c(/C=N\N=C(N)N)c[nH]c2cc1C
*A* 40.2 µM

###

# Test system: HL-60(TB) leukemia
# Protocol: NCI tumour cell line growth inhibition, 48 h
Measurement label: TGI

Cc1[nH]c2ccccc2c1C1Cc2ccccc2N1C(=O)C#Cc1ccc([N+](=O)[O-])cc1 (stereo not drawn) :: > 100 µM
Cc1ccc([N+](=O)[O-])cc1N=NC(=O)NNc1cc([N+](=O)[O-])ccc1C :: > 100 µM

Let us move to another entry and its TGI.
*Q* What value of TGI has been recorded for this entry: O=C1CCCN1c1ccccc1I(=O)=O
*A* > 100 µM

###

# Test system: RXF 393 renal
# Protocol: NCI tumour cell line growth inhibition, 48 h
List of TGI values.

Use the examples below as a reference point.
C[C@@H](Cl)[C@H]1CCCN(Cc2ccc(Br)cc2)C1 :: > 12.5 µM
CSc1c(C#N)c(N)n(-c2ccc(C)cc2)c(=O)c1C#N :: > 100 µM
CCOC(=O)c1c(-c2ccccc2)c(-c2ccccc2)cn1C :: > 10 µM
Cc1ccc(CC[P+](=O)CCc2ccc(C)nc2)cn1 :: > 100 µM
O=c1[nH]cnc2c1ncn2[C@@H]1C[C@@H]1CO :: > 100 µM
O=C1NCCS(=O)(=O)N[C@@H](CC2=CC=CCC2)C(=O)N2CCCC12 (some centres undefined) :: > 100 µM
CCOC(CNCCC(=O)OC)OCC :: > 10 µM
N#CCc1nc(-c2ccccc2)n[nH]1 :: > 100 µM

Let us move to another entry and its TGI.
*Q* Lab note: need TGI for S=c1[nH]c2ccc(Br)cc2c(=S)s1 on RXF 393 renal, anyone have it?
*A* > 100 µM

###

# Tested on: ACHN renal
# Protocol: NCI tumour cell line growth inhibition, 48 h
Measurement label: TGI

Nc1nc(-c2ccc(Cl)c([N+](=O)[O-])c2)cs1 :: > 100 µM
Nc1ccc(-c2nc3ccccc3s2)cc1C(F)(F)F :: 28.5 µM
Cn1c(=O)nc2n(-c3cc(C(F)(F)F)cc(C(F)(F)F)c3)c3ccccc3nc-2c1=O :: > 100 µM
C[C@]12CC[C@@H]3c4ccc(O)cc4CC[C@H]3[C@@H]1C/C(=C\c1ccncc1)[C@@H]2O :: 28.3 µM
Cn1c(=O)c2c(nc(C(=N)SCC(=O)O)n2C)n(C)c1=O :: > 100 µM
CC(=O)c1cccn1/C=C(\OC(=O)OC(C)(C)C)c1ccc[nH]1 :: > 100 µM
NC(=O)C(=O)CC(=O)c1ccccc1NC1=CC(=O)C(=O)c2ccccc21 :: > 100 µM
Nc1cc2c(cc1Br)[nH]c(=O)c1ccccc12 :: 20.1 µM

Let us move to another entry and its TGI.
*Q* What value of TGI has been recorded for this entry: COC(=O)C1=COC(C)C2CN3CCc4c([nH]c5ccccc45)C3CC12 (centres undefined)
*A* > 100 µM
